Overview of reported Ratio with respect to Non-Coating across a group of binders:
STUDY TARGET: CRD2-3
Sequence (chain, as listed by the source limits assumed): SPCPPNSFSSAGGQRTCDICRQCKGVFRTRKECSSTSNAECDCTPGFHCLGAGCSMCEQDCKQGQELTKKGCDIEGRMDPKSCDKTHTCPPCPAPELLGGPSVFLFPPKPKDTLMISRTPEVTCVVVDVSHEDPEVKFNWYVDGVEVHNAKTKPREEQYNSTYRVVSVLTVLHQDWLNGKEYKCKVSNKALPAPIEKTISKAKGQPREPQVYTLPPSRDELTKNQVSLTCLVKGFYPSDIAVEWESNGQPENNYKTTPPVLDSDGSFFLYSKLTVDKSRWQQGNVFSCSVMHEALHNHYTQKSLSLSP
PROTOCOL: ELISA, coated CD137-Fc protein 2 µg/mL, antibody 10 or 5 µg/mL; absorbance 620 nm divided by that of the uncoated well
# output: bare number, no unit

{"BINDER": "R13 (antibody, V domains shown) VH: QVQLVESGGGLVQPGGSLRLSCAASGFTFSYYDIQWVRQAPGKGLEWVSSISPSGQSTYYRREVKGRFTISRDNSKNTLYLQMNSLRAEDTAVYYCARRTGREYGGGWYFDYWGQGTLVTVSS VL: DIQMTQSPSSLSASVGDRVTITCRASQSISSYLNWYQQKPGKAPKLLIYAASSLQSGVPSRFSGSGSGTDFTLTISSLQPEDFATYYCQQFSRFPLTFGGGTKVEIK", "MEAS VALUE": 0.5}

QUERY: Consider the binder shown here: R14 (antibody, V domains shown) VH: QVQLLESGGGLVQPGGSLRLSCAASGFTFSSYAMSWVRQAPGKGLEWVSAISGSGGSTYYADSVKGRFTISRDNSKNTLYLQMNSLRAEDTAVYYCARDKWYYYPALDYWGQGTLVTVSS VL: DIQMTQSPSSLSASVGDRVTITCRASQSISSYLNWYQQKPGKAPKLLIYAASSLQSGVPSRFSGSGSGTDFTLTISSLQPEDFATYYCLQVYRSPLTFGGGTKVEIK What is its recorded Ratio with respect to Non-Coating?
RESULT: 1.2

QUERY: Consider the binder shown here: R8 (antibody, V domains shown) VH: QVQLQESGPGLVKPSETLSLTCAVSGYSISSGYYWGWIRQPPGKGLEWIGSIYHSGSTYYNPSLKSRVTISVDTSKNQFSLKLSSVTAADTAVYYCARQHSFTRYYGYYYFDYWGQGTTVTVSS VL: DIQMTQSPSSLSASVGDRVTITCRASQSISSYLNWYQQKPGKAPKLLIYAASSLQSGVPSRFSGSGSGTDFTLTISSLQPEDFATYYCLQSDSIPLTFGGGTKVEIK What is its recorded Ratio with respect to Non-Coating?
RESULT: 2.2

Hey, just so you know, these numbers are from patent US20170022287A1.
